target: acetylcholine receptor; test: SPR, AchR immobilised on CM5 chip, peptide 10 uM
Consider the following binders and their measured Binding affinity (RU) readings.
observable: Binding affinity (RU)

binder: KFEERK [6mer-2-762]
readout_number: 24
//
binder: RYEHRK [6mer-2-634]
readout_number: 33
//
binder: KFAGRR [6mer-2-663]
readout_number: 24
//
binder: RYTNKR [6mer-2-622]
readout_number: 13
//
binder: KDSIRK [6mer-2-694]
readout_number: 22
//
binder: RHKDRK [6mer-2-660]
readout_number: 16
//
binder: RKFTVR [6mer-1-948]
readout_number: 24
//
binder: KNDVRR [6mer-2-777]
readout_number: 31
//
binder: RDSDRR [6mer-2-609]
readout_number: 24
//
binder: RRNTAK [6mer-1-1056]
readout_number: 27
//
binder: KPWFKK [6mer-2-738]
readout_number: 29
//
binder: KFTMRK [6mer-2-690]
readout_number: 13
//
binder: RKMSKK [6mer-1-1009]
readout_number: 29
//
binder: RCWAKR [6mer-2-638]
readout_number: 30
//
binder: KCAERR [6mer-2-665]
readout_number: 18
//
binder: RPTFRK [6mer-2-766]
readout_number: 23
//
binder: KDHPRK [6mer-2-744]
readout_number: 19
